System: NCI/ADR-RES ovarian
assay-explanation: NCI tumour cell line growth inhibition, 48 h; in the data active = GI50 below about 0.43 µM; inactive = the rest
Allowed answers: 1 (active), 0 (inactive)

CN(Cc1ccc(F)cc1)c1ccc(CO)c(Cl)c1; 0
FC(F)(F)c1ccc(-c2nn3ncccc3c2-c2ccnc(Nc3ccc4c(c3)OCCO4)n2)cc1; 0
CCSc1ccc([C@@H]2[C@@H](O)C(=O)N2c2cc(OC)c(OC)c(OC)c2)cc1; 1
C/C(=C(/c1ccccc1)c1ccc(OCC(O)CNCCN2CCOCC2)cc1)c1ccccc1 (stereo not drawn); 0
Cn1cc(-c2cc(-c3cn(C)c4ccc(Cl)cc34)[nH]n2)c2cc(Cl)ccc21; 0

From here, focus on the item given below.
Per the records of this test, what outcome belongs to CCCN(CCC)c1ccc(C=O)c(Cl)c1 ?
0
